So I've got a bunch of compounds here, and I need their Population Fragmented Nuclei (%) values.
- Test system: Fibroblast
- protocol text: Multiplex assay against human fibroblast
- Assay type: toxicity, cell-based
- condition info: 24 h, 10 µM, compound concentration 10 uM, replicate 2
Quick reminder: number only, in %, skip the unit.

In: # get_value(readout='Population Fragmented Nuclei (%)', item= `Cc1cc(C)c(S(=O)(=O)N(Cc2ccc(-c3cccc(S(C)(=O)=O)c3)cc2)Cc2ccc(C(F)(F)F)o2)c(C)c1` )
Out: 15

In: Lookup `CNC(=O)c1ccc(Nc2nc(OC3CCCC3)c3c(-c4ccc5nc(C)oc5c4)c[nH]c3n2)c(OC)c1`
Out: 60

In: Lookup `Cl.Oc1ccc2c3c1O[C@H]1c4[nH]c5c(c4C[C@@]4(O)[C@@H](C2)N(CC2CC2)CC[C@]314)C[C@@]1(O)[C@H]2Cc3ccc(O)c4c3[C@@]1(CCN2CC1CC1)[C@H]5O4`
Out: 13

---

- Tested on: HEK-293T
- protocol text: Multiplex assay against HEK293T
- Assay type: toxicity, cell-based
- condition info: human, 48 h, 1 µM, compound concentration 1 uM, replicate 1
So I've got a bunch of compounds here, and I need their Population Mitochondria Different-Phenotype (%) values.
Quick reminder: number only, in %, skip the unit.

In: # get_value(readout='Population Mitochondria Different-Phenotype (%)', item= `Cc1cc(C)c(S(=O)(=O)N(Cc2ccc(-c3cccc(S(C)(=O)=O)c3)cc2)Cc2ccc(C(F)(F)F)o2)c(C)c1` )
Out: 38

In: Lookup `O=C(Nc1ccc(-n2nc(-c3cccnc3)cc2C(F)(F)F)cn1)c1ccc(-c2ccccc2)c(F)c1`
Out: 20

In: Lookup `O=C(Cc1ccc(-c2ccc(OCCN3CCOCC3)cc2)cn1)NCc1ccccc1`
Out: 45

In: Lookup `CCCS(=O)(=O)c1nc(NC2CC2)cc(-c2ccc3c(ccn3C3CC(C)(C)NC(C)(C)C3)c2)n1`
Out: 58

In: Lookup `Cc1ccc(C(=O)Nc2cccc(C(F)(F)F)c2)cc1Nc1nc(-c2cccnc2)nc2c1cnn2C`
Out: 74

In: Lookup `CCc1cccc(CC)c1NC(=O)c1nn(C)c2c1CCc1cnc(Nc3ccc(C(=O)NC4CCN(C)CC4)cc3OC(F)(F)F)nc1-2`
Out: 57

In: Lookup `CCOc1cc2ncc(C#N)c(Nc3ccc(OCc4ccccn4)c(Cl)c3)c2cc1NC(=O)/C=C/CN(C)C`
Out: 56

In: Lookup `CCN1CCN(Cc2ccc(Nc3ncc(F)c(-c4cc(F)c5nc(C)n(C(C)C)c5c4)n3)nc2)CC1.CS(=O)(=O)O`
Out: 81

In: Lookup `CNc1cc(Oc2cc(C(=O)Nc3cc(N4CCN(C)CC4)cc(C(F)(F)F)c3)ccc2C)ncn1`
Out: 76

---

So I've got a bunch of compounds here, and I need their Population Normal (%) values.
- Test system: U2OS
- protocol text: Multiplex assay against U2OS
- Assay type: toxicity, cell-based
- condition info: human, 24 h, 10 µM, compound concentration 10 uM, replicate 1
Quick reminder: number only, in %, skip the unit.

In: Value wanted: Population Normal (%) (U2OS) of entry CCCS(=O)(=O)Nc1ccc(F)c(C(=O)c2c[nH]c3ncc(Cl)cc23)c1F [PLX-4720]
Out: 97

In: Lookup CCCn1c(=O)c2[nH]c(-c3cnn(Cc4cccc(C(F)(F)F)c4)c3)nc2n(CC)c1=O [GS 6201]
Out: 83

In: Lookup `Cc1cc(C)c(S(=O)(=O)N(Cc2ccc(-c3cccc(S(C)(=O)=O)c3)cc2)Cc2ccc(C(F)(F)F)o2)c(C)c1`
Out: 93

In: Lookup `CCn1c(=O)c(-c2ccc(-c3cncs3)cc2Cl)cc2cnc(Nc3ccc(N4CCN(C)CC4)cc3)nc21`
Out: 21

---

- System: U2OS
- protocol text: Incucyte cell viability with U2OS; note: filed as whole numbers so only -1 and 0 and 1 occur
- Format: toxicity, cell-based
- condition info: human, 0 h, 10 µM, compound concentration 10 uM, replicate number 2, timepoint 0 hours
So I've got a bunch of molecules here, and I need their Growth Rate values.
Lab note: record just the number, no unit beside it.

In: # get_value(readout='Growth Rate', item= `C=C(c1ccc(C(=O)O)cc1)c1cc2c(cc1C)C(C)(C)CCC2(C)C` )
Out: -1

In: Lookup `CCN1CCN(c2ccc(Nc3cc(N(C)C(=O)Nc4c(Cl)c(OC)cc(OC)c4Cl)ncn3)cc2)CC1`
Out: 0

In: Lookup `CCCc1c(OCCCOc2ccc(OCC(=O)O)cc2)ccc(C(C)=O)c1O`
Out: 1

In: Lookup `COc1cc(N2CCC(N3CCN(C)CC3)CC2)ccc1Nc1ncnc(Nc2ccccc2S(=O)(=O)C(C)C)n1`
Out: 0

In: Lookup `COc1cc(N2CCN(C)CC2)ccc1Nc1ncc2c(n1)N(C)c1ccccc1C(=O)N2C`
Out: 1

---

- Test system: Fibroblast
- protocol text: Multiplex assay against human fibroblast
- Type: toxicity, cell-based
- condition info: 12 h, 1 µM, compound concentration 1 uM, replicate 1
The label depends only on Population Apoptotic (%): Satisfied if it is at least 70%, Not satisfied if it is smaller.

In: Does Population Apoptotic (%) meet or surpass 70% for `CNc1cc(Oc2cc(C(=O)Nc3cc(N4CCN(C)CC4)cc(C(F)(F)F)c3)ccc2C)ncn1` ?
Out: Not satisfied

In: Lookup `Cc1ccc2nc(NCCN)c3ncc(C)n3c2c1.O=C(O)C(F)(F)F.O=C(O)C(F)(F)F`
Out: Satisfied

In: Lookup `O=C(Nc1ccc(Cl)cc1)Nc1cccc(-c2cccc(N3CCCC3)n2)c1`
Out: Not satisfied

In: Lookup `Cl.O=C(c1ccc(Nc2nccc(-c3cc4ccccc4s3)n2)cc1)N1CCC(N2CCCC2)CC1`
Out: Satisfied

In: Lookup `O=C(Nc1cccnn1)N1CCC(=Cc2cccc(Oc3ccc(C(F)(F)F)cn3)c2)CC1`
Out: Not satisfied

In: Lookup `CCOc1cc(C(=O)N2CCC(N3CCN(C)CC3)CC2)ccc1Nc1ncc2c(n1)N(C1CCCC1)c1ccccc1C(=O)N2C`
Out: Not satisfied

In: Lookup `COc1cccc2cc(-c3nc([C@H]4CC[C@H](C(=O)O)CC4)n4ncnc(N)c34)[nH]c12`
Out: Not satisfied

---

- Tested on: HEK-293T
- protocol text: Multiplex assay against HEK293T
- Format: toxicity, cell-based
- condition info: human, 24 h, 1 µM, compound concentration 1 uM, replicate 1
endpoint name: Population Normal (%)

In: # get_value(readout='Population Normal (%)', item= `Cc1ccc2nc(NCCN)c3ncc(C)n3c2c1.O=C(O)C(F)(F)F.O=C(O)C(F)(F)F` )
Out: 93%

In: Lookup `CCn1cc(-c2ccnc3[nH]c(-c4cccc(CN(C)C)c4)cc23)c(-c2ccc(NC(=O)N(C)C)cc2)n1`
Out: 91%

In: Lookup `CCOc1cc(C(=O)N2CCC(N3CCN(C)CC3)CC2)ccc1Nc1ncc2c(n1)N(C1CCCC1)c1ccccc1C(=O)N2C`
Out: 80%

In: Lookup CN(C)C(=O)C(CCN1CCC(O)(c2ccc(Cl)cc2)CC1)(c1ccccc1)c1ccccc1.Cl [LOPERAMIDE HYDROCHLORIDE]
Out: 83%

In: Lookup `CCNc1cc(N[C@H]2CC[C@H](O)CC2)nc(Nc2ccc3c(ccn3Cc3ccccc3)c2)n1`
Out: 92%

In: Lookup `NC(=O)c1cccc(-c2cc(Nc3ccc(OC(F)(F)F)cc3)ncn2)c1`
Out: 95%

In: Lookup `Cl.O=C(c1ccc(Nc2nccc(-c3cc4ccccc4s3)n2)cc1)N1CCC(N2CCCC2)CC1`
Out: 92%

In: Lookup `Cc1cc(C)c(S(=O)(=O)N(Cc2ccc(-c3cccc(S(C)(=O)=O)c3)cc2)Cc2ccc(C(F)(F)F)o2)c(C)c1`
Out: 90%

---

- Tested on: Fibroblast
- protocol text: Multiplex assay against human fibroblast
- Type: toxicity, cell-based
- condition info: 48 h, 1 µM, compound concentration 1 uM, replicate 2
Field: label. Allowed values: met (Population Hoechst High Intensity Objects (%) < 10%) or not met (Population Hoechst High Intensity Objects (%) >= 10%).

In: # check: Population Hoechst High Intensity Objects (%) < 10% for `C=C1/C(=C\C=C2/CCC[C@]3(C)[C@@H]([C@H](C)/C=C/[C@H](C)C(C)C)CC[C@@H]23)C[C@@H](O)C[C@@H]1O`
Out: not met

In: Lookup `O=C1NC(=O)C(c2cnc3ccccn23)=C1c1cn2c3c(cc(F)cc13)CN(C(=O)N1CCCCC1)CC2`
Out: met

In: Lookup `CNc1cc(Oc2cc(C(=O)Nc3cc(N4CCN(C)CC4)cc(C(F)(F)F)c3)ccc2C)ncn1`
Out: not met

In: Lookup `O=C1N/C(=N/c2ccccc2F)S/C1=C\c1ccc(C(=O)O)cc1`
Out: not met

In: Lookup `CCOc1cc(C(=O)N2CCC(N3CCN(C)CC3)CC2)ccc1Nc1ncc2c(n1)N(C1CCCC1)c1ccccc1C(=O)N2C`
Out: not met

In: Lookup `Cl.Oc1ccc2c3c1O[C@H]1c4[nH]c5c(c4C[C@@]4(O)[C@@H](C2)N(CC2CC2)CC[C@]314)C[C@@]1(O)[C@H]2Cc3ccc(O)c4c3[C@@]1(CCN2CC1CC1)[C@H]5O4`
Out: met
